tested on: c-Abl (mouse); test: phosphorylation enrichment, bacterial display (enrichment ratio); higher = better substrate or ligand; peptides without Tyr show the background
Each entry falls in a class defined on phosphorylation enrichment; the bands are group A = under 0.7, group B = from 0.7 up to 1, group C = 1 and over

| query sequence | category |
| --- | --- |
| DRLASYPDKVR [KRT14_Y129_L130P] | group A |
| EKKQTYGSCRK [LACTB_Y473_R469K] | group A |
| REEIKYMLWLS [OTC_Y55_G50R] | group B |
| LLREWYLPDPY [SIX3_Y225_Q227P] | group B |
| AEEPIYIIVPA [BMXtide_2014] | group C |
| RPSRQYATLDV [SCAMP3_Y35] | group A |
| LKYAIYFEARE [LAMA2_Y1258] | group C |
| ASKEPYYVRCI [MYO1D_Y585] | group C |
| EYITRYIDSLK [PSMA7_Y110_A112D] | group A |
| LIGRRYDDPEV [HSPA9_Y128] | group C |
| RFLERDIFNRE [HLA-DPB1_Y57_Y57D_YF] | group C |
| AESPEHVHMFT [FAM111A_Y511_Y511H_YF] | group A |
| SPFMLYQFLKQ [RPAP3_Y567_D564Y_YF] | group B |
| DSKIRYLSADS [TTF1_Y476_E473K] | group A |
| HNLDFYKETTN [FGFR3_Y648_K650E_YF] | group C |
| LWPIWYRCHRP [MRGPRX1_Y130] | group C |
| DAKAIYDFTDT [PDK1_Y136] | group C |
| NFCPGYNNFFN [USH2A_Y467_R464C_YF] | group A |
| RDSQLYAVDYE [MRPS34_Y34] | group B |
| SNNYIYKTLGV [FAM83B_Y639] | group A |
| DERQPYVHMNG [IGF1R_Y1346_A1347V] | group A |
| RIVEIYSRSLQ [GCH1_Y175_R178S] | group C |
| GGMTEYELVVV [KRAS_Y4_K5E] | group A |
| MFNPMYALFRT [HUWE1_Y4078] | group C |
| CTTIHYTYMCN [TP53_Y234_N235T] | group A |
| LKLIQYHLIQQ [AKAP4_Y554_T557I] | group C |

* * *

molecular target: EPHB2 (UniProt P29323); experiment: phosphorylation enrichment, bacterial display (enrichment ratio); higher = better substrate or ligand; peptides without Tyr show the background
Sequence (P29323 whole entry, looked up): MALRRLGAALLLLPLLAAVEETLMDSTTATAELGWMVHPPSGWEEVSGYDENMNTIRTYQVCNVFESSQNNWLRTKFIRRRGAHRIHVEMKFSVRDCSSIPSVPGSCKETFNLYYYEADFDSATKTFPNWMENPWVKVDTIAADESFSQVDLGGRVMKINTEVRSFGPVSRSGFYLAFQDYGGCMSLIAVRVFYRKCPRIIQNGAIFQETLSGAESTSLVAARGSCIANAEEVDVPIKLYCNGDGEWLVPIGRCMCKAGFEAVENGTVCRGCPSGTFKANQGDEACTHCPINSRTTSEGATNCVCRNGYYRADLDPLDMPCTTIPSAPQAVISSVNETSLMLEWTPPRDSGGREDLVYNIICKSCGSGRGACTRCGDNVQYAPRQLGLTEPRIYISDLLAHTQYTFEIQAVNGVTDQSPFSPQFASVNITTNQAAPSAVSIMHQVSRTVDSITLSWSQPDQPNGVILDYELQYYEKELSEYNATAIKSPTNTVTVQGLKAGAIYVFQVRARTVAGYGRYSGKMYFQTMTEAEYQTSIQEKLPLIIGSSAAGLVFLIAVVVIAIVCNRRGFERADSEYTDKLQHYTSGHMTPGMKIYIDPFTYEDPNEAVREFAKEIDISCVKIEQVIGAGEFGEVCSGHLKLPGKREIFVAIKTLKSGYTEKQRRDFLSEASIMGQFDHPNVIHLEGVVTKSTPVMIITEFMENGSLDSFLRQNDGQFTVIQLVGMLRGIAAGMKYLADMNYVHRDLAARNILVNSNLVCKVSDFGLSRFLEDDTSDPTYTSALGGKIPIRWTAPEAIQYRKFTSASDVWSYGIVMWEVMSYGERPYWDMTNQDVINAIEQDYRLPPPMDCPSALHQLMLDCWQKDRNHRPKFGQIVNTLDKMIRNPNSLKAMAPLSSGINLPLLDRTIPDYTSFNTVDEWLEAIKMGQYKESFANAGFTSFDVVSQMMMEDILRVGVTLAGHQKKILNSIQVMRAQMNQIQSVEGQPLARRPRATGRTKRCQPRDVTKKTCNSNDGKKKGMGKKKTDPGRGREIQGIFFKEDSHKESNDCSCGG
Documented phosphorylation enrichment across a set of sequences

| query sequence | phosphorylation enrichment |
| --- | --- |
| LKKLEYLNLAL [LRRC6_Y70] | 0.987 |
| SNNYIYKTLGV [FAM83B_Y639] | 0.328 |
| MFNPMYALFRT [HUWE1_Y4078] | 0.693 |
| AEEPIYIIVPA [BMXtide_2014] | 24.2 |
| YRDALYKFMVD [PHEX_Y250] | 0.797 |
| VNKIFHPDFIV [LIG3_Y768_Y768H_YF] | 0.454 |
| KIPGRYFETGS [PAX2_Y72_L69P_YF] | 0.546 |

* * *

target: Grb2 SH2 (UniProt P62993); assay: SH2 binding enrichment of the phosphorylated peptide, bacterial display (enrichment ratio); higher = better substrate or ligand; peptides without Tyr show the background
Sequence (P62993 whole entry, looked up): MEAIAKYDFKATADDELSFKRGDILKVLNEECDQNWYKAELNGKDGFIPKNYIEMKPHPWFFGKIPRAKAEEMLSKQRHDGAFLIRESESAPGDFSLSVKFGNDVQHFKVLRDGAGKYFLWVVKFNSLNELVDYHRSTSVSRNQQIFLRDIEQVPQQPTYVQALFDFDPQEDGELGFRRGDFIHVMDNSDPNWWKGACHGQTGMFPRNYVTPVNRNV

| query sequence | measured target | SH2 binding enrichment |
| --- | --- | --- |
| SSDKVYAHQMV [MLH1_Y379] | Grb2 SH2 (UniProt P62993) | 0.792 |
| VNKGGYFSVNL [C3orf33_Y164_S160N] | Grb2 SH2 (UniProt P62993) | 0.648 |
| GIVEEYQLPYY [BMPR1A_Y453] | Grb2 SH2 (UniProt P62993) | 0.862 |
| REAAAYPHGRL [AGXT_Y297_L298P] | Grb2 SH2 (UniProt P62993) | 0.989 |
| AGLEEYSAMRD [HRAS_Y64_Q61L] | Grb2 SH2 (UniProt P62993) | 0.821 |
| GAVGHYVLAER [HFE_Y342_M339V] | Grb2 SH2 (UniProt P62993) | 0.634 |
| AEEPIYIIVPA [BMXtide_2014] | Grb2 SH2 (UniProt P62993) | 1.05 |
| LLREWYLQDPF [SIX3_Y225_YF] | Grb2 SH2 (UniProt P62993) | 1.42 |
| KQRSDYARELE [MYH3_Y1140] | Grb2 SH2 (UniProt P62993) | 1.01 |
| SSMIDYNTLEK [MYOC_Y479_P481T] | Grb2 SH2 (UniProt P62993) | 0.643 |
| AALVQYFMEHH [PTPN11_Y80_E76A_YF] | Grb2 SH2 (UniProt P62993) | 1.34 |
| NVVHEYSSELE [FGB_Y172_N170H] | Grb2 SH2 (UniProt P62993) | 0.908 |
| DGLALYTGSAL [COL6A3_Y524_S521L] | Grb2 SH2 (UniProt P62993) | 0.695 |
| KRISCYEASYQ [PFKFB3_Y194] | Grb2 SH2 (UniProt P62993) | 0.67 |
